Target: Histamine H1 receptor (Cavia porcellus) (UniProt P31389)
Sequence (P31389 whole entry): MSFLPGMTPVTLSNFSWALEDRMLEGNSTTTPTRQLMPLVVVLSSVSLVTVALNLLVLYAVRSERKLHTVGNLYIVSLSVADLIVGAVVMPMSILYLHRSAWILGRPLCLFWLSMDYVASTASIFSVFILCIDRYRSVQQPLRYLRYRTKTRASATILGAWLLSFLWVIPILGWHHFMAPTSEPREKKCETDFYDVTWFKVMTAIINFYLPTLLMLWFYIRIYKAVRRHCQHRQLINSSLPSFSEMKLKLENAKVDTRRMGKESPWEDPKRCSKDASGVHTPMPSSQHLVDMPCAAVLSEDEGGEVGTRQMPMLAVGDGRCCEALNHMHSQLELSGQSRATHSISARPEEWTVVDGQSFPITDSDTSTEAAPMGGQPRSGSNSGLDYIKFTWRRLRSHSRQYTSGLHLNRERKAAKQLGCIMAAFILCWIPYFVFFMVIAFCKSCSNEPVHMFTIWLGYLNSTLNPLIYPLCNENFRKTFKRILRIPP
Test: Antagonist activity at histamine H1 receptor in Cavia porcellus (guinea pig) ileum
Type: tissue-based
observedProperty: Activity (µM/L)

(A) O=C(CCN1CCC(Cc2ccccc2)CC1)Nc1ccccc1Cl
(B) O=C(CCN1CCC(Cc2ccccc2)CC1)Nc1ccccc1F
(Q) Compare A and B by numeric Activity and name the larger one. Output the label that corresponds to your choice.
(A) B

(P) CCc1ccccc1NC(=O)CCN1CCN2Cc3[nH]c4ccccc4c3CC2C1 (centres undefined)
(Q) O=C(CCN1CCN2Cc3ccccc3CC2C1)Nc1ccccc1 (centres undefined)
(Q) Endpoint returns the identifier whose Activity is numerically larger, either P or Q . Record your answer as the label of the chosen record.
(A) Q

(1) Cc1ccccc1C(=O)NCCN1CCN2Cc3[nH]c4ccccc4c3CC2C1 (centres undefined)
(2) O=C(NCCN1CCC(Cc2ccccc2)CC1)c1ccccc1Cl
(Q) Lab log: flag the item ( 1 or 2 ) with the smaller Activity figure. Your choice should be expressed through its label.
(A) 1
(1: 0.283 µM/L, 2: 0.799 µM/L)

(A) O=C(NCCN1CCN(Cc2ccccc2)CC1)c1ccccc1[N+](=O)[O-]
(B) O=C(CCN1CCN(Cc2ccccc2)CC1)Nc1ccccc1Cl
(Q) Name the one with the greater Activity value, either A or B as given. Identify your pick by its label.
(A) A
